Each item that follows carries a reported IC50.
Target: Human immunodeficiency virus type 1 reverse transcriptase (Human immunodeficiency virus 1, UniProt Q72547)
Conditions: read-out: IC50 (converted)
Where a name gives a salt, the structure may show the parent alone.
MEASURED QUANTITY: IC50

INSERT INTO assay_data (compound, measured_quantity, endpoint_value) VALUES
  ('O=C(OC[C@H]1O[C@@H](OC(=O)c2cc(O)c(O)c(OC(=O)c3cc(O)c(O)c(O)c3)c2)[C@H](OC(=O)c2cc(O)c(O)c(OC(=O)c3cc(O)c(O)c(O)c3)c2)[C@@H](OC(=O)c2cc(O)c(O)c(OC(=O)c3cc(O)c(O)c(O)c3)c2)[C@@H]1OC(=O)c1cc(O)c(O)c(OC(=O)c2cc(O)c(O)c(O)c2)c1)c1cc(O)c(O)c(OC(=O)c2cc(O)c(O)c(O)c2)c1', 'IC50', '< 29.4 µM'),
  ('COc1cc(O)c2c(=O)cc(-c3ccc(O)c(OC)c3)oc2c1 [VELUTIN]', 'IC50', '> 636 µM'),
  ('C[n+]1cc2c3c(ccc2c2ccc4cc5c(cc4c21)OCO5)OCO3 [SANGUINARINE NITRATE]', 'IC50', '< 380 µM'),
  ('C[C@@H]1O[C@@H](O[C@H]2C[C@@H](O)[C@]3(CO)[C@H]4[C@H](O)C[C@]5(C)[C@@H](C6=CC(=O)OC6)CC[C@]5(O)[C@@H]4CC[C@]3(O)C2)[C@H](O)[C@H](O)[C@H]1O', 'IC50', '> 342 µM'),
  ('COc1ccc(C(=O)Cc2c(CCN(C)C)cc3c(c2OC)OCO3)c(C(=O)O)c1OC', 'IC50', '> 449 µM'),
  ('C/C=C1/C[C@@H](C)[C@](O)(CO)C(=O)OCC2=CCN3CC[C@@H](OC1=O)[C@@H]23', 'IC50', '> 569 µM'),
  ('COc1cc2c(cc1OC)N1C(=O)C[C@]34C=CCN5CC[C@@H]2[C@@H](CC3)C514', 'IC50', '> 567 µM'),
  ('C1CCN2C[C@@H]3C[C@@H](CN4CCCC[C@@H]34)[C@H]2C1 [SPARTEINE]', 'IC50', '> 853 µM'),
  ('CC1=C(O)C(=O)C=C2C1=CC=C1[C@@]2(C)CC[C@@]2(C)[C@@H]3C[C@@H](C)C(=O)[C@@H](O)[C@]3(C)CC[C@]12C', 'IC50', '> 458 µM'),
  ('COc1c(O)c2c3c(nccc3c1OC)C(C)(C)c1cc(O)ccc1-2', 'IC50', '> 593 µM'),
  ('C1CCN2C[C@]34C[C@H](C[C@@H]5CCCN([C@@H]6CCC[C@@H]3N6)[C@H]54)[C@H]2C1 [PANAMINE]', 'IC50', '> 634 µM'),
  ('COc1cc([C@H]2OC[C@H]3[C@@H]2CO[C@@H]3c2cc(OC)c(O[C@@H]3O[C@H](CO)[C@@H](O)[C@H](O)[C@H]3O)c(OC)c2)cc(OC)c1O[C@@H]1O[C@H](CO)[C@@H](O)[C@H](O)[C@H]1O', 'IC50', '> 269 µM'),
  ('CN1[C@@H]2C[C@@H](OC(=O)[C@H](CO)c3ccccc3)C[C@H]1[C@@H]1O[C@@H]12 [SCOPOLAMINE HYDROBROMIDE]', 'IC50', '> 456 µM'),
  ('COc1coc(CO)cc1=O', 'IC50', '> 1280 µM'),
  ('COc1cccc2c1C(=O)c1c(O)c3c(c(O)c1C2=O)C[C@@](O)(C(C)=O)C[C@@H]3O[C@H]1C[C@H](N)[C@H](O)[C@H](C)O1', 'IC50', '237 µM'),
  ('COc1cc2c(c3c1c(=S)c1ccccc1n3C)C=CC(C)(C)O2', 'IC50', '> 593 µM'),
  ('CC(=O)N[C@H]1[C@H](O[C@H]2CC[C@]3(C)[C@H]4CC=C5[C@H]6CC(C)(C)CC[C@]6(C(=O)O)CC[C@@]5(C)[C@]4(C)CC[C@H]3C2(C)C)O[C@H](CO)[C@@H](O)[C@@H]1O', 'IC50', '> 303 µM'),
  ('COC(=O)C[C@](O)(CCC(C)(C)O)C(=O)O[C@@H]1C(OC)=C[C@]23CCCN2CCc2cc4c(cc2[C@H]13)OCO4', 'IC50', '> 376 µM'),
  ('C/C=C(/C)C(=O)O[C@H]1CC[C@@]2(C)[C@@H]3CC[C@H]4[C@]5(O)C[C@H](O)[C@@]6(O)[C@@H](CN7C[C@@H](C)CC[C@H]7[C@@]6(C)O)[C@]5(O)C[C@]42O[C@]13O', 'IC50', '> 338 µM'),
  ('O[C@H]1[C@H]2[C@H](O)CCCN2C[C@H]1O', 'IC50', '> 1150 µM'),
  ('CC(=O)O[C@@H]1[C@H]2[C@H]3C[C@H]4C5=Nc6ccccc6[C@]51C[C@@H]2N4[C@H](C)C3C=O (stereo not given in full)', 'IC50', '> 571 µM'),
  ('COC(=O)[C@H]1[C@H]2C[C@H]3c4[nH]c5ccccc5c4CCN3C[C@@H]2CC[C@@H]1O', 'IC50', '> 564 µM'),
  ('COC(=O)[C@H]1[C@H]2C[C@@H]3c4[nH]c5ccccc5c4CCN3C[C@H]2C[C@@H](O)[C@@H]1OC(=O)c1cc(OC)c(OC)c(OC)c1', 'IC50', '> 354 µM'),
  ('CC[C@]12CCc3[nH]c4ccccc4c3CCN(C[C@H]3O[C@H]31)C2', 'IC50', '> 675 µM'),
  ('CC(=O)O[C@H]1CC(=O)OC(C)(C)[C@@H]2CC(=O)[C@]3(C)[C@H](CC[C@@]4(C)[C@@H](c5ccoc5)OC(=O)[C@H]5O[C@]543)[C@@]12C', 'IC50', '> 389 µM');
